Target: Bcl-2, P10415
Sequence (P10415 1-217): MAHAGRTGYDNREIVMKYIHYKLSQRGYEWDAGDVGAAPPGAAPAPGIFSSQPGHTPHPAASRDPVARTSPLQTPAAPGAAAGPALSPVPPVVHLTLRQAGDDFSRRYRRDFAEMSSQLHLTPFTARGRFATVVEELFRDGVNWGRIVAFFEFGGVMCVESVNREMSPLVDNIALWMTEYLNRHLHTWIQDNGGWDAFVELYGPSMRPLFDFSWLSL
Experiment: peptide SPOT array, c-Myc-tagged receptor at 1 uM or 100 nM, anti-c-Myc-Cy3
experimentalReadout: SPOT signal as a fraction of Bim BH3's signal on the same receptor and array
In your answer, state the number alone without any accompanying words.

Query: Tell me the measured SPOT signal as a fraction of Bim BH3's signal on the same receptor and array of VIKQRRLPDQLSKLADRIQLSGRYYL [RAPGEF2] , please.
Response: 0.49

Query: Tell me the measured SPOT signal as a fraction of Bim BH3's signal on the same receptor and array of TDENKKVGLALKDLAKQYSDRLECCE [NUB1] , please.
Response: 0.01

Query: Tell me the measured SPOT signal as a fraction of Bim BH3's signal on the same receptor and array of RQAFYLHTTKLTRIARRLCREILRPW [MTA1] , please.
Response: 0.23

Query: Tell me the measured SPOT signal as a fraction of Bim BH3's signal on the same receptor and array of TIRNGHDSELLRSLAEELPLEQGFTI [PLCD4] , please.
Response: 0.01

Query: Tell me the measured SPOT signal as a fraction of Bim BH3's signal on the same receptor and array of ASGNKEMIEALKQYAMDYSNKALEKG [IFIT3] , please.
Response: 0.01

Query: Tell me the measured SPOT signal as a fraction of Bim BH3's signal on the same receptor and array of TNISWRACDHLRCIACDFLVVSYDDY [C8orf37] , please.
Response: 0.01

Query: Tell me the measured SPOT signal as a fraction of Bim BH3's signal on the same receptor and array of FYRRRDISNTLIMLADKHAKEIEEES [MTA3] , please.
Response: 0.03

Query: Tell me the measured SPOT signal as a fraction of Bim BH3's signal on the same receptor and array of DSLAKFAGRKLKDCGEDLLVEISEVL [PCM1] , please.
Response: 0.01

Query: Tell me the measured SPOT signal as a fraction of Bim BH3's signal on the same receptor and array of CLSCDLCGCRLGEVGRRLYYKLGRKL [LMO2] , please.
Response: 0.59

Query: Tell me the measured SPOT signal as a fraction of Bim BH3's signal on the same receptor and array of KEFLALASSSLLKIGQETDKTTTRNR [NCKAP1] , please.
Response: 0.03

Query: Tell me the measured SPOT signal as a fraction of Bim BH3's signal on the same receptor and array of IGQRQTVVRTLNATGEEIIQQSSKTD [DMD] , please.
Response: 0.01

Query: Tell me the measured SPOT signal as a fraction of Bim BH3's signal on the same receptor and array of LQLHRVLPPDLKSLGDQYVKDEFRRH [ACN9] , please.
Response: 0.05

Query: Tell me the measured SPOT signal as a fraction of Bim BH3's signal on the same receptor and array of YNLKSPAVKRLMKEAAELKDPTDHYH [UBE2J1] , please.
Response: 0.03

Query: Tell me the measured SPOT signal as a fraction of Bim BH3's signal on the same receptor and array of DLTDKLVSFYLETYGAELTANVLRDM [PYCARD] , please.
Response: 0.01
